- TARGET OR TEST SYSTEM: Leukotriene B4 receptor (Homo sapiens, UniProt Q9NPC1+Q15722)
- EXPERIMENT NOTES: Inhibition of binding of [3H]LTB4 (1 nM) to intact human polymorphonuclear leukocytes (PMNs)
MEASUREMENT NAME: IC50 (µM)

COMPOUND: CCCCCC(O)/C=C/[C@H]1CCC[C@@](O)(CC(=O)[O-])C1.[Na+] (stereo in doubt; 2b)
READOUT RELATION: =
REPORTED MEASUREMENT: 8

COMPOUND: O=C([O-])/C=C1\CCC[C@H](/C=C\C(O)CCCCc2ccccc2)C1.[Na+] (some centres undefined)
READOUT RELATION: =
REPORTED MEASUREMENT: 1.3

COMPOUND: CCCCCCCCC(O)/C=C/[C@H]1CCC[C@](O)(CC(=O)[O-])C1.[Na+] (stereo in doubt; 4d)
READOUT RELATION: =
REPORTED MEASUREMENT: 2.5

COMPOUND: CCCCCCCCC(O)/C=C/[C@H]1CCC[C@@](O)(CC(=O)[O-])C1.[Na+] (stereo in doubt; 4a)
READOUT RELATION: >
REPORTED MEASUREMENT: 10

###

- TARGET OR TEST SYSTEM: Leukotriene B4 receptor (Homo sapiens, UniProt Q9NPC1+Q15722)
- EXPERIMENT NOTES: Inhibition of binding of [3H]LTB4 (1 nM) to intact human polymorphonuclear leukocytes (PMNs)
Recorded IC50, one value per entry.
MEASUREMENT NAME: IC50 (µM)

COMPOUND: O=C([O-])C[C@]1(O)CCC[C@H](/C=C/C(O)CCCCc2ccccc2)C1.[Na+] (stereo in doubt; 3a)
TARGET OR TEST SYSTEM: Leukotriene B4 receptor (Homo sapiens, UniProt Q9NPC1+Q15722)
MEASUREMENT NAME: IC50
READOUT RELATION: >
REPORTED MEASUREMENT: 10

COMPOUND: O=C([O-])C[C@@]1(O)CCC[C@H](/C=C/C(O)CCCCc2ccccc2)C1.[Na+] (stereo in doubt; 3c)
TARGET OR TEST SYSTEM: Leukotriene B4 receptor (Homo sapiens, UniProt Q9NPC1+Q15722)
MEASUREMENT NAME: IC50
READOUT RELATION: >
REPORTED MEASUREMENT: 10

COMPOUND: CN(C)OC(=O)/C=C1/CCC[C@@H](/C=C/C(O)CCCCc2ccccc2)C1 (some centres undefined)
TARGET OR TEST SYSTEM: Leukotriene B4 receptor (Homo sapiens, UniProt Q9NPC1+Q15722)
MEASUREMENT NAME: IC50
READOUT RELATION: =
REPORTED MEASUREMENT: 1

COMPOUND: O=C([O-])/C=C1/CCC[C@H](/C=C/C(O)CCCCc2ccccc2)C1.[Na+] (stereo in doubt; form 2)
TARGET OR TEST SYSTEM: Leukotriene B4 receptor (Homo sapiens, UniProt Q9NPC1+Q15722)
MEASUREMENT NAME: IC50
READOUT RELATION: =
REPORTED MEASUREMENT: 0.5

###

Recorded IC50, one value per entry.
- TARGET OR TEST SYSTEM: Leukotriene B4 receptor (Homo sapiens, UniProt Q9NPC1+Q15722)
- EXPERIMENT NOTES: Inhibition of binding of [3H]LTB4 (1 nM) to intact human polymorphonuclear leukocytes (PMNs)

COMPOUND: CN(C)C(=O)C[C@]1(O)CCC[C@H](/C=C/C(C)(O)CCCCc2ccccc2)C1 (stereo in doubt; form 1)
READOUT RELATION: =
IC50 / µM: 4.5
--
COMPOUND: CC(=O)OC(/C=C/[C@H]1CCC/C(=C/C(=O)N(C)C)C1)CCCCc1ccccc1 (stereo partly drawn)
READOUT RELATION: >
IC50 / µM: 10
--
COMPOUND: O=C([O-])C[C@@H]1CCC[C@H](CCC(O)CCCCc2ccccc2)C1.[Na+] (stereo partly drawn)
READOUT RELATION: =
IC50 / µM: 2.6
--
COMPOUND: CN(C)C(=O)C[C@]1(O)CCC[C@H](/C=C/[C@@H](O)CCCCc2ccccc2)C1
READOUT RELATION: =
IC50 / µM: 0.04
--
COMPOUND: CCCCCCCCC(O)/C=C/[C@H]1CCC[C@](O)(CC(=O)[O-])C1.[Na+] (stereo in doubt; 4c)
READOUT RELATION: =
IC50 / µM: 4
--
COMPOUND: CCCCCC(O)/C=C/[C@H]1CCC[C@@](O)(CC(=O)[O-])C1.[Na+] (stereo in doubt; 2a)
READOUT RELATION: >
IC50 / µM: 10
--
COMPOUND: O=C([O-])C[C@]1(O)CCC[C@H](/C=C/C(O)CCCCc2ccccc2)C1.[Na+] (stereo in doubt; 3b)
READOUT RELATION: =
IC50 / µM: 0.8
--
COMPOUND: O=C([O-])C[C@]1(O)CCC[C@H](CCC(O)CCCCc2ccccc2)C1.[Na+] (stereo partly drawn)
READOUT RELATION: =
IC50 / µM: 5.3
